Tested on: MDA-MB-231 complex spheroids, growth inhibition
testProtocol: Anticancer human tumor MDA-MB-231 cell line growth inhibition [Asc];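 note: spheroids exposed to compounds for 7 days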
testSettings: second compound 0.01 µM; first compound 0.0316 µM; stronger effect = lower value
measuredProperty: viability, T/C (%)

compound="Cn1ncnc1[C@H]1c2n[nH]c(=O)c3cc(F)cc(c23)N[C@@H]1c1ccc(F)cc1 + CNC(C)C(=O)NC1CN(S(=O)(=O)c2cccc(S(=O)(=O)N3CCC4CCC(C(=O)NC(c5ccccc5)c5ccccc5)N4C(=O)C(NC(=O)C(C)NC)C3)c2)CCC2CCC(C(=O)NC(c3ccccc3)c3ccccc3)N2C1=O" measuredproperty="viability, T/C" reportedvalue=1.45
compound="C=C(F)C(=O)N1CCN(c2nc(OCC3CCCN3C)nc3c2CCN(c2cccc4cccc(Cl)c24)C3)CC1CC#N (configuration not stated) + CNC(C)C(=O)NC1CN(S(=O)(=O)c2cccc(S(=O)(=O)N3CCC4CCC(C(=O)NC(c5ccccc5)c5ccccc5)N4C(=O)C(NC(=O)C(C)NC)C3)c2)CCC2CCC(C(=O)NC(c3ccccc3)c3ccccc3)N2C1=O" measuredproperty="viability, T/C" reportedvalue=1.99
